- Tested on: Fer (mouse)
- procedureText: phosphorylation enrichment, bacterial display (enrichment ratio); higher = better substrate or ligand; peptides without Tyr show the background
Respond with Fulfilled for phosphorylation enrichment values of 0.8 and above, Not fulfilled for values below.

Q) Say whether YQQLFYLLQIN [IQGAP2_Y890_T894I] shows phosphorylation enrichment of 0.8 or more.
A) Not fulfilled

Q) Identify whether the reported phosphorylation enrichment of the following sequence is 0.8 or greater: ASFPLYEPAKM [MKI67_Y340]
A) Fulfilled

Q) Please indicate if the recorded phosphorylation enrichment for CGADSYEMEED [EGFR_Y316] meets or exceeds 0.8.
A) Not fulfilled

* * *

Give phosphorylation enrichment for every item shown.
- testedSystem: Fes (UniProt P07332)
- Sequence (P07332 whole entry, looked up): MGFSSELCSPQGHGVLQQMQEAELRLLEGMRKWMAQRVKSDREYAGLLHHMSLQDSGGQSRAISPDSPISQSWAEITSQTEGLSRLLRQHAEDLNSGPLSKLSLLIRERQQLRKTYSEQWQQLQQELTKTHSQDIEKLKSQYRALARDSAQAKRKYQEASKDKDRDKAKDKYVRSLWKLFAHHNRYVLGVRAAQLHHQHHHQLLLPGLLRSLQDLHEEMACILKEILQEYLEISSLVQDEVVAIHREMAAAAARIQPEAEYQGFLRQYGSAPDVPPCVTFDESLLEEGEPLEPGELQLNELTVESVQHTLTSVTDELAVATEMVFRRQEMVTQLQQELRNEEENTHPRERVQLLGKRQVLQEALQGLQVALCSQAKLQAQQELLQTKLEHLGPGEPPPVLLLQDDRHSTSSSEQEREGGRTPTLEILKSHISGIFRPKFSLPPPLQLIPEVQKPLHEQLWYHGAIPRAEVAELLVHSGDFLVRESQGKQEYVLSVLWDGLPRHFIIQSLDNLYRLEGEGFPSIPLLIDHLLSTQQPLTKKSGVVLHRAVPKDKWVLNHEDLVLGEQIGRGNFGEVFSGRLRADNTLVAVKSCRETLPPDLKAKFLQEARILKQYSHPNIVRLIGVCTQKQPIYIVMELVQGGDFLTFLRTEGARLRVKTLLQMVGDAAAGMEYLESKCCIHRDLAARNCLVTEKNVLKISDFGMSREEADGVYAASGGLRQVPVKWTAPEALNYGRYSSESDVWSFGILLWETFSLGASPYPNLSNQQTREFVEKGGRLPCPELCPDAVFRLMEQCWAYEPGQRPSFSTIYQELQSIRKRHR
- procedureText: phosphorylation enrichment, bacterial display (enrichment ratio); higher = better substrate or ligand; peptides without Tyr show the background

Q) Fill in the blank: the reported phosphorylation enrichment of IMAFFYMCDSA [CASD1_Y382_R386S_YF] is ____.
A) 1.78

Q) State the recorded phosphorylation enrichment for this entry: KREPQYSSHSS [SIPA1L3_Y1265_G1261R]
A) 0.629

Q) phosphorylation enrichment for FCRHNYGAVES [HLA-DRB1_Y112_V114A_YF] ?
A) 0.826

Q) Dear colleague, I am looking for the recorded phosphorylation enrichment of the following sequence: LEQGEYALRSH [HADHB_Y244_D242G]
A) 0.993

Q) What measured phosphorylation enrichment goes with SLGKGYSDGGC [MC4R_Y35] ?
A) 0.773

Q) Quick check: phosphorylation enrichment of CNTIHYNYMCN [TP53_Y234_T230N] ?
A) 0.865

Q) Reported phosphorylation enrichment for IFRASYFRRGD [LTK_Y676_YF] : what is it?
A) 0.879

Q) Fill in the blank: the reported phosphorylation enrichment of AELVRYYMEHH [PTPN11_Y80_Q79R] is ____.
A) 1.12

Q) Fill in the blank: the reported phosphorylation enrichment of NVSILYTASQA [CTNNA1_Y222_P219S] is ____.
A) 1.02

Q) Item CEAIEYLESKQ [BTK_Y511_M509I] has what recorded phosphorylation enrichment?
A) 1.39

Q) Look up phosphorylation enrichment for this sequence: VTGWGYRKLRE [F11_Y521_D526E]
A) 0.763

Q) GET /values?readout=phosphorylation enrichment&item= LLLLFYVVRFC [MPZ_Y177_YF]
A) 1.21

Q) Sample VHNLNYFKKTT [FGFR3_Y647_D646N_YF] — what was its phosphorylation enrichment?
A) 0.607

Q) Record request: phosphorylation enrichment value, item YSKTQYNQVPR [CXADR_Y318_S323R]
A) 0.542

Q) Query (sequence): PLLTDYSPQLQ [OTC_Y345_S340P] ; field requested: phosphorylation enrichment
A) 1.9

Q) Query: phosphorylation enrichment; subject: EEGRVYVYHLS [ITGAE_Y549_R552H]
A) 1.22

Q) Please look up its phosphorylation enrichment: PIYLYYLMDLS [ITGB2_Y131_D128Y]
A) 3.42

Q) Entry QLGLQYSQGLV [EIF2B4_Y214_R209Q] has what phosphorylation enrichment?
A) 0.835

Q) Fill in: phosphorylation enrichment of EAKENYGKTLK [CHL1_Y291_T287A] is ___
A) 0.732

Q) Need phosphorylation enrichment of APVEDYGGGGG [B4GALT6_Y382_I379V] , thanks.
A) 0.882

Q) Query (sequence): DGQVNYEGFVQ [CALM1_Y139_E141G] ; field requested: phosphorylation enrichment
A) 1.07

Q) # input sequence: PGLKGYPGLSG [COL4A2_Y306_R304K] ; wanted: its phosphorylation enrichment
A) 0.468

Q) Which measured phosphorylation enrichment value corresponds to QEGPEYWDQQT [HLA-A_Y83_E87Q] ?
A) 2.21

Q) What value of measured phosphorylation enrichment is listed for AVLSLYASDRT [ACTA1_Y145_G148D] ?
A) 1.14

Q) I'd like to know its phosphorylation enrichment. The sequence in question is KIMVIYDGACQ [VWDE_Y1035_T1032M]
A) 1.69

Q) Which phosphorylation enrichment value is on record for DLTQDYEEWKR [ORC6_Y232] ?
A) 1.47

Q) Name the recorded phosphorylation enrichment for GNHVSYFQSDG [CACNA1C_Y1757_YF] .
A) 0.791

Q) Which phosphorylation enrichment reading was recorded for the sequence ERTIEYLEEVA [HADHA_Y239] ?
A) 1.35

Q) # input sequence: TNLVPYPRIHF [TUBA1A_Y262] ; wanted: its phosphorylation enrichment
A) 0.655

Q) Returns the measured phosphorylation enrichment for the input sequence. Input: GQLIVYAPPEW [CNTN6_Y315_F314V]
A) 0.985

Q) Entry MAYDRYAAICS [OR8H2_Y123_H120Y] has what phosphorylation enrichment?
A) 1.35

Q) What does the data say about its phosphorylation enrichment? Entry: PYSNSYENSLI [EPOR_Y489_P488S]
A) 1.41

Q) What value of phosphorylation enrichment has been recorded for this entry: RYLKDYGEFEV [GINS1_Y156_C152Y]
A) 1.6

Q) I'd like to know its phosphorylation enrichment. The sequence in question is TTKGAYSLSVR [YES1_Y194_I198V]
A) 0.73

Q) Dear colleague, I am looking for the recorded phosphorylation enrichment of the following sequence: FFRDGHMPRQF [GSS_Y270_Y270H_YF]
A) 0.612

Q) May I ask what phosphorylation enrichment has been recorded for KLSHLYQDHMQ [WNT5A_Y86_C83S] ?
A) 0.844

Q) Which phosphorylation enrichment value belongs to GFVEDYRPPFF [ACVRL1_Y421_I417F_YF] ?
A) 0.987

Q) Please look up its phosphorylation enrichment: CTTVHYNFMCN [TP53_Y234_I232V_YF]
A) 0.901

Q) Consider the sequence shown here: PVFEVYPLLNC [GATA1_Y78_Q76E] What is its recorded phosphorylation enrichment?
A) 1.86

Q) phosphorylation enrichment lookup needed for VLTSKYPGGGG [HBA1_Y141_R142P] , thanks.
A) 0.443

Q) Need phosphorylation enrichment, item YRDALYKFIVD [PHEX_Y250_M253I]
A) 1.25

Q) Sample FRRITYFNWRH [PDE6B_Y556_H557Y_YF] — what was its phosphorylation enrichment?
A) 0.8

Q) Need phosphorylation enrichment of LKKKQYTSIHH [APP_Y728] , thanks.
A) 0.787

Q) Give its phosphorylation enrichment value. Item: MGCVNYGAYIN [GLB1_Y485_R482C]
A) 1.37

Q) Given the entry TDVSLYPSGGT [TENM4_Y399] , report its measured phosphorylation enrichment.
A) 0.552

Q) Bench note: what phosphorylation enrichment did NPQKSYFILLF [WAS_Y83_R86L_YF] show?
A) 0.969

* * *

- testedSystem: EPHB2 (UniProt P29323)
- Sequence (P29323 whole entry, looked up): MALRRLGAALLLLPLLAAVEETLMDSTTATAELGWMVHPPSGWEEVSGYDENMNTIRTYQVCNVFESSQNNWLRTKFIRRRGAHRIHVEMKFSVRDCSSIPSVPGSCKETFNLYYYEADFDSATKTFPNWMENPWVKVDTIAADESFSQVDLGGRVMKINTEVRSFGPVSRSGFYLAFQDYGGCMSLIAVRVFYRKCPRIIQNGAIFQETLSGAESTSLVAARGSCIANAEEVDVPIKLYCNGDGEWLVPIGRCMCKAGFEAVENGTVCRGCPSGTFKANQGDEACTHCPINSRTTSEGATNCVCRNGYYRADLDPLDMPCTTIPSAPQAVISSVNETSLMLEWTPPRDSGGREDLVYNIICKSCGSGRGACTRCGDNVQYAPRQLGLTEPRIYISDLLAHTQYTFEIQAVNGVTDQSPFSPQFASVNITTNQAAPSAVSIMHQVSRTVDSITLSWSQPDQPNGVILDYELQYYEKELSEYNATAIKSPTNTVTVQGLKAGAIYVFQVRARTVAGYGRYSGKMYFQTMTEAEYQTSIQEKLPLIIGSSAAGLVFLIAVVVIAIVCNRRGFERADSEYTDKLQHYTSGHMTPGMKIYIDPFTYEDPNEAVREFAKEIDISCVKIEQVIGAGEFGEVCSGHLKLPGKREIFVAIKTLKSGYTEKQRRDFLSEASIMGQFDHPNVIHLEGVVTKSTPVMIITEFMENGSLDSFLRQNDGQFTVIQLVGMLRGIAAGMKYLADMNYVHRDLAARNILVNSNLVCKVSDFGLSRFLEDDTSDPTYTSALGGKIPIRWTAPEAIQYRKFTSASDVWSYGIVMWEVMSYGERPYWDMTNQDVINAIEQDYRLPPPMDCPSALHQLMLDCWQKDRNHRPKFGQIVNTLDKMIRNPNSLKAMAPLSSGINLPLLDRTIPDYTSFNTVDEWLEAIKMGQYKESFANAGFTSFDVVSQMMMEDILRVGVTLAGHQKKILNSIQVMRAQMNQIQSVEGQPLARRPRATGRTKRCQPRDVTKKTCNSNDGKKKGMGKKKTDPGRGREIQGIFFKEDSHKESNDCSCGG
- procedureText: phosphorylation enrichment, bacterial display (enrichment ratio); higher = better substrate or ligand; peptides without Tyr show the background
We use 0.5 as the dividing line for phosphorylation enrichment: on or above the line is condition met, below is condition not met.

Q) Decide: is the reported value of phosphorylation enrichment for IMAFFYMCDRA [CASD1_Y382_YF] equal to or greater than 0.5?
A) condition met

Q) Please check the record SQPASYQRRLL [PPIG_Y320] and state if its phosphorylation enrichment is at or above 0.5.
A) condition not met

Q) Check the entry PYSNSYENSLI [EPOR_Y489_P488S] : does phosphorylation enrichment equal or exceed 0.5?
A) condition not met

Q) Please tell me: is the sequence EDGCIYPATIA [SMN1_Y109] at or over 0.5 in terms of phosphorylation enrichment?
A) condition met

Q) In plain terms: is recorded phosphorylation enrichment at least 0.5 for AYGNLYGSRKQ [YIPF7_Y59] ?
A) condition not met

Q) Kindly determine if phosphorylation enrichment recorded for AKKKMYSLKTK [AGXT_Y231_R233L] is above or exactly 0.5.
A) condition not met

Q) Threshold query (phosphorylation enrichment >= 0.5) on QYPDIYAREEV [CRX_Y67_V66I]
A) condition met

Q) Could you please find out whether MTRDIYETDFF [INSR_Y1185_YF] has phosphorylation enrichment that meets 0.5 or exceeds it?
A) condition met

* * *

- testedSystem: Grb2 SH2 (UniProt P62993)
- Sequence (P62993 whole entry, looked up): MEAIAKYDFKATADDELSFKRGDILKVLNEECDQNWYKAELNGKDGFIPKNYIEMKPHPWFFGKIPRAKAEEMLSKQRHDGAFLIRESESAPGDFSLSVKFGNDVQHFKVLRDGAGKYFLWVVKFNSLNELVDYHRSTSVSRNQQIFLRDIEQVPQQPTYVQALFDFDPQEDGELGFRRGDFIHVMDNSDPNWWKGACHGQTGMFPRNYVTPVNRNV
- procedureText: SH2 binding enrichment of the phosphorylated peptide, bacterial display (enrichment ratio); higher = better substrate or ligand; peptides without Tyr show the background
endpointName: SH2 binding enrichment

Q) Fill blank: measured SH2 binding enrichment of the sequence ESLRRYLENGK [HLA-B_Y195_W191S] is ____.
A) 0.813

Q) SH2 binding enrichment for ADRNHYRRFPR [YBX1_Y145_YF] ?
A) 0.601

Q) Any idea what its SH2 binding enrichment is? The sequence is RTLSEYARRHV [RERE_Y1259_P1262R]
A) 0.826

Q) Please give the measured SH2 binding enrichment for this sequence: RVLHNYLVWCV [ECEL1_Y400_R404C]
A) 0.921

Q) Look up SH2 binding enrichment for this sequence: DTERIYDDDFF [UBA1_Y560]
A) 0.836

Q) Requested read-out: SH2 binding enrichment. Entry: MLEAPYVDRNS [F10_Y384_V382A]
A) 0.827

Q) Consider the sequence VHNLDYFKKTT [FGFR3_Y647_YF] and give its measured SH2 binding enrichment.
A) 0.782

Q) Entry under review: LVRAFYCERRW [CARD11_Y970_R975W] . Reported SH2 binding enrichment?
A) 0.953

Q) Suppose we examine the sequence TWNPKYTLRSH [STRN3_Y474] ; what SH2 binding enrichment value has been reported?
A) 1.11

Q) Recorded SH2 binding enrichment of ALKKPYSVLYK [RPF2_Y59_G60S] , please.
A) 1.72

Q) Look up SH2 binding enrichment: AASTDYYKRGD [PDHA1_Y242]
A) 0.824

Q) SH2 binding enrichment lookup needed for QFNMQYSSSAA [ERBB2IP_Y981_I979M_YF] , thanks.
A) 0.694

Q) Return reported SH2 binding enrichment; argument: SIKDKYVMALY [KCNH2_Y611_T613M]
A) 0.836

Q) # lookup: SH2 binding enrichment of SCRSKYVGLWG [KCNQ1_Y184_G179S]
A) 1.18
